Test system: OVCAR-3 ovarian
Test: NCI tumour cell line growth inhibition, 48 h
Outcome measure: TGI (µM)
Give the quantity in µM, number only.

Example cases with answers are listed next.
Cc1ccc2c(n1)C(=O)C(Cl)=C(Nc1ccc(N3CCN(C)CC3)cc1)C2=O; 3.13
O=C1/C(=C/c2ccc3c(c2)OCO3)Sc2scc(-c3ccc(O)c(O)c3)[n+]21; 15.3
CCCCCCCCCCCCNC(=O)[C@H]1CSC(c2cc(Br)cs2)N1 (stereo partly drawn); 2.38
COc1ccc(-c2nnc(Nc3nc(O)c(C4=c5cc(OC(F)(F)F)ccc5=NC4=O)s3)o2)cc1; 90.8
N#Cc1c(N)nc2c(N=Nc3ccccc3)c(N)nn2c1Nc1ccccc1; 35.1
Cc1ccc(C2NC(=S)N3C(c4ccc(C)cc4)NC(=S)N23)cc1 (stereo not drawn); 11.5

Query block: Could you please provide reported TGI for CCOP(=O)(CCN1CCN(CCCCCOc2cc3c(cc2OC)C(=O)N2CCC[C@H]2C=N3)CC1)OCC ? Thanks!
Result block: 34.1

Query block: Check the records and state TGI for O=CNNC(=O)CSc1nc2ccc(I)cc2c(=O)n1Cc1ccccc1
Result block: 50.2

Query block: Fill in TGI for record [O-]/N=N\c1on[n+](CCc2ccccc2)c1Cc1c(/N=N/[O-])on[n+]1CCc1ccccc1
Result block: 39.8

Query block: Give a short answer stating reported TGI for O=Cc1c[nH]c2ccc(-c3csc4ccccc34)cc12 .
Result block: 5.03

----------
Test system: RPMI-8226 leukemia
Experiment: NCI tumour cell line growth inhibition, 48 h
This listing pairs molecules with measured TGI.

CCCC1=NC(C(F)(F)F)(C(F)(F)F)N=C(N2CCOCC2)O1; > 100 µM
C[C@]12CC[C@H]3[C@@H](CC=C4C[C@@H](O)CC[C@@]43C)[C@@H]1C[C@H](N1CCOCC1)[C@@H]2O; > 100 µM
O=CN(O)CC(=O)O.[Ni]; > 100 µM

Query block: Read the entry O=C(Nc1sccc1S(=O)(=O)c1ccc(Cl)cc1)c1ccc(Cl)cc1Cl and write its reported TGI.
Result block: > 100 µM

Query block: Read the entry O=c1c2cc(Br)ccc2[nH]c(=S)n1-c1ccccc1 and write its reported TGI.
Result block: > 100 µM

Query block: Fill in TGI for record CCn1c(SCC(=O)NNC(=S)Nc2ccc(Cl)cc2)nc2ccccc2c1=O
Result block: 94.8 µM

Query block: For COc1ccccc1N(C(C)=O)C1=C(Cl)C(=O)c2ccccc2C1=O , write its TGI.
Result block: 3.96 µM

Query block: Report TGI for CC12OC3(C(O)C1O)C(C(=O)O[C@H]3CO[Si](C)(C)C(C)(C)C)C2S(=O)(=O)c1ccccc1 (stereo partly drawn)
Result block: 70.8 µM

----------
Tested on: SNB-75 CNS
Test: NCI tumour cell line growth inhibition, 48 h
*1 amine or outer side, *2 acyl side, *3 side chain or, on linkers, in order; H or OH if unused. Where a SMILES comes first, the peptide text is derived from it. Bridges are numbered along the chain shown (N, C = ends). Roman numbers before positions name the chains, in order. X23 = CCCCCCCCCCCCCCC(=O)NC(CCCCN[*:2])C(=O)CN1CCCC1C(=O)[*:1]
Outcome measure: TGI (µM)
Report as a plain number; the unit µM is understood.

Query block: Read off the recorded TGI for CCCCCCCCCCCCCCC(=O)NC(CCCCNC(=O)C1CCCN1C(=O)C(CCCCN)NC(=O)C(CCCCN)NC(=O)C(CCCCN)NC(=O)C(CCCNC(=N)N)NC(=O)C(CCCCN)NC(=O)C(N)C(C)C)C(=O)CN1CCCC1C(=O)NCC(=O)NC(Cc1ccccc1)C(=O)N1CCCC1C(=O)NC(CO)C(=O)NC(Cc1ccc(O)cc1)C(=O)NC(CCCCN)C(=O)NC(CC(C)C)C(=O)NC(CCCNC(=N)N)C(=O)N1CCCC1C(=O)NCC(N)=O (configuration not stated) (I: GFPSYKLRPG-NH2 / II: H-VKRKKKP; linker I:N-II:C via X23; configuration not given here)
Result block: 76.7

----------
Tested on: DU-145 prostate
Experiment: NCI tumour cell line growth inhibition, 48 h
Outcome measure: TGI

CCOP(=O)(CCN1CCN(CCCCCOc2cc3c(cc2OC)C(=O)N2CCC[C@H]2C=N3)CC1)OCC; 63.3 µM

Query block: Kindly indicate its recorded TGI. Item: O=[N+]([O-])c1ccc(N/N=C/c2ccccc2O)nc1
Result block: > 100 µM

Query block: Quickly give me recorded TGI for Cc1ccc(S(=O)(=O)N/N=C2/C3C(CC2(C)C)C2(C)CCCC3(C)C2O)cc1 (stereo not given)
Result block: > 100 µM

Query block: Note down TGI recorded for Clc1ccc(/C=C/c2nc(-c3ccc(Cl)cc3)cn3c2nc2ccccc23)cc1
Result block: > 100 µM

Query block: Identify measured TGI corresponding to CC(=O)OCC1=C2C(OC(=O)C(C)C)CC3(COC(C)=O)OC3/C=C\C3(C)OC3C2OC1=O (stereo not given)
Result block: > 100 µM

----------
Tested on: HCT-116 colon
Test: NCI tumour cell line growth inhibition, 48 h
Outcome measure: TGI

Cc1ccc(N(C)S(=O)(=O)c2ccccc2)cc1; > 100 µM
CCOC(=O)C1=C(C)NC(C)=C(C(=O)OCC)C1c1cc(Br)c(O)c(OC)c1; 13.5 µM
c1ccc(-c2sc(-c3ccccc3)c3c2C2CCC3C2)cc1; > 100 µM
OC1=CN=C(C2CC2)Oc2ccccc21; > 100 µM
CSc1ncc2c(C#N)c3ccccn3c(=O)c2n1; > 100 µM

Now, please, on to the next molecule.
Query block: For the molecule CC(C)(C)OC(=O)N(CCCCNC(=O)c1ccccc1)CCCNC(=O)c1ccccc1 , give its measured TGI value.
Result block: > 100 µM

----------
Entries and their TGI values follow.
System: SNB-19 CNS
Test: NCI tumour cell line growth inhibition, 48 h

C=CCC1(O)C(=O)OC2C(O)COC21O (stereo unspecified); > 100 µM
Cc1ccc([S+](c2ccccc2)c2cc(C)ccc2C)cc1 (stereo unspecified); > 100 µM

Query block: Return TGI for the following compound: O=C1C=Cc2c1csc2Br
Result block: > 100 µM

Query block: State its TGI: CCc1cccc(C(C)C)c1NC1=C([n+]2ccc(C)cc2)C(=O)c2ccccc2C1=O
Result block: > 100 µM

Query block: Item Nc1nc(NNc2ccccc2F)cc(=O)[nH]1 : provide TGI
Result block: > 100 µM

Query block: // fetch TGI given entry CC(C)CNC(=O)c1c(NC(=O)c2ccccc2)sc2[nH]c(=O)n(-c3ccccc3)c(=O)c12
Result block: 75.8 µM

----------
System: OVCAR-5 ovarian
Assay: NCI tumour cell line growth inhibition, 48 h
Outcome measure: TGI

COc1cc(C2CC(=O)c3c(C)nn(-c4nc5ccccc5[nH]4)c3C2)cc(OC)c1OC (centres undefined); > 100 µM
CC1(C)CC(=O)C(CC2C(=O)c3ccccc3C2=O)C(=O)C1C(=O)C(=O)Nc1cccc2ccc(O)cc12 (centres undefined); > 100 µM
CCSC1=C(C#N)C2(CCCCC2)C2=C(CC(C)(C)CC2=O)N1; > 100 µM
CCCCCCCCn1ccc2cc(NC(=O)Cn3cc(CN4CCC(C)CC4)nn3)ccc21; 3.42 µM
CC(C)CC(NC=O)C(=O)NC(Cc1ccccc1)NC(=O)CNC(=O)C(C)NC(=O)OC(C)(C)C (centres undefined); > 100 µM

Query block: Identify measured TGI corresponding to CC(=O)Nc1cc(C(c2ccccc2)c2ccccc2)cc(C(c2ccccc2)c2ccccc2)c1C
Result block: > 100 µM

Query block: Give TGI for the following compound: Cc1ccc(S(=O)(=O)C(C#N)c2nc3ccccc3nc2N2CCOCC2)cc1 (centres undefined)
Result block: > 100 µM

Query block: Return TGI for the following compound: O=S(=O)(c1ccccc1)[C@@H]1[C@H]2C=C[C@](CS)(O2)[C@H]1S(=O)(=O)c1ccccc1
Result block: > 100 µM

Query block: Give the reported value of TGI for this record: O=c1c(-c2ccc3c(c2)OCO3)coc2c(CO)c(O)ccc12
Result block: 10.5 µM

----------
Recorded TGI values for a group of compounds are listed next.
Test system: SK-OV-3 ovarian
Experiment: NCI tumour cell line growth inhibition, 48 h
*1 amine or outer side, *2 acyl side, *3 side chain or, on linkers, in order; H or OH if unused. Where a SMILES comes first, the peptide text is derived from it. Bridges are numbered along the chain shown (N, C = ends). Roman numbers before positions name the chains, in order. X23 = CCCCCCCCCCCCCCC(=O)NC(CCCCN[*:2])C(=O)CN1CCCC1C(=O)[*:1]

Query block: Give recorded TGI. O=C1CC(NC2CC(=O)c3c(Br)sc(Br)c32)c2c(Br)sc(Br)c21 (stereo not drawn)
Result block: 32.6 µM

Query block: Please indicate TGI recorded for CCCCCCCCCCCCCCC(=O)NC(CCCCNC(=O)C1CCCN1C(=O)C(CCCCN)NC(=O)C(CCCCN)NC(=O)C(CCCCN)NC(=O)C(CCCNC(=N)N)NC(=O)C(CCCCN)NC(=O)C(N)C(C)C)C(=O)CN1CCCC1C(=O)NCC(=O)NC(Cc1ccccc1)C(=O)N1CCCC1C(=O)NC(CO)C(=O)NC(Cc1ccc(O)cc1)C(=O)NC(CCCCN)C(=O)NC(CC(C)C)C(=O)NC(CCCNC(=N)N)C(=O)N1CCCC1C(=O)NCC(N)=O (stereo not drawn) (I: GFPSYKLRPG-NH2 / II: H-VKRKKKP; linker I:N-II:C via X23; configuration not given here)
Result block: 44.3 µM
